# Substrate: O=c1ccn([C@@H]2O[C@H](COP(=O)(O)OP(=O)(O)O[C@H]3O[C@H](CO)[C@H](O)[C@H](O)[C@H]3O)[C@@H](O)[C@H]2O)c(=O)[nH]1
# ASSAY_COMMENT: UDP release, Michaelis-Menten fit
# Format: biochemical, Homo sapiens
# COND: 2 mM Gb4 glycan fixed, 20 mM HEPES pH 7.4, 0.1 mM MnCl2
// log10 of kcat lookup, one value per entry
All values: log10 kcat [s⁻¹].

These solved cases illustrate the format of a correct answer.
soluble β3GalT5-1 (HEK293) (Homo sapiens; Q69M/S66A) (protein, soluble luminal domain N29-V310, no TM; expressed in HEK293 cells, complex-type N-glycans) NPFKEQSFVYKKDGNFLKLPDTDCRQTPPFLVLLVTSAHKMLAERMAIRQTWGKERMVKGKQLKTFFLLGTTSSAAETKEVDQESQRHGDIIQKDFLDVYYNLTLKTMMGIEWVHRFCPQAAFVMKTDSDMFINVDYLTELLLKKNRTTRFFTGFLKLNEFPIRQPFSKWFVSKSEYPWDRYPPFCSGTGYVFSGDVASQVYNVSKSVPYIKLEDVFVGLCLERLNIRLEELHSQPTFFPGGLRFSVCLFRRIVACHFIKPRTLLDYWQALENSRGEDCPPV :: -1.11
soluble β3GalT5-1 (HEK293) (Homo sapiens) (protein, soluble luminal domain N29-V310, no TM; expressed in HEK293 cells, complex-type N-glycans) NPFKEQSFVYKKDGNFLKLPDTDCRQTPPFLVLLVTSSHKQLAERMAIRQTWGKERMVKGKQLKTFFLLGTTSSAAETKEVDQESQRHGDIIQKDFLDVYYNLTLKTMMGIEWVHRFCPQAAFVMKTDSDMFINVDYLTELLLKKNRTTRFFTGFLKLNEFPIRQPFSKWFVSKSEYPWDRYPPFCSGTGYVFSGDVASQVYNVSKSVPYIKLEDVFVGLCLERLNIRLEELHSQPTFFPGGLRFSVCLFRRIVACHFIKPRTLLDYWQALENSRGEDCPPV :: -0.90

Annotate the protein soluble β3GalT5-1 (HEK293) (Homo sapiens; Q69A/S66A) (protein, soluble luminal domain N29-V310, no TM; expressed in HEK293 cells, complex-type N-glycans) NPFKEQSFVYKKDGNFLKLPDTDCRQTPPFLVLLVTSAHKALAERMAIRQTWGKERMVKGKQLKTFFLLGTTSSAAETKEVDQESQRHGDIIQKDFLDVYYNLTLKTMMGIEWVHRFCPQAAFVMKTDSDMFINVDYLTELLLKKNRTTRFFTGFLKLNEFPIRQPFSKWFVSKSEYPWDRYPPFCSGTGYVFSGDVASQVYNVSKSVPYIKLEDVFVGLCLERLNIRLEELHSQPTFFPGGLRFSVCLFRRIVACHFIKPRTLLDYWQALENSRGEDCPPV with its measured log10 of kcat.
-1.56

Fill in log10 of kcat for record soluble β3GalT5-1 (HEK293) (Homo sapiens; S66A) (protein, soluble luminal domain N29-V310, no TM; expressed in HEK293 cells, complex-type N-glycans) NPFKEQSFVYKKDGNFLKLPDTDCRQTPPFLVLLVTSAHKQLAERMAIRQTWGKERMVKGKQLKTFFLLGTTSSAAETKEVDQESQRHGDIIQKDFLDVYYNLTLKTMMGIEWVHRFCPQAAFVMKTDSDMFINVDYLTELLLKKNRTTRFFTGFLKLNEFPIRQPFSKWFVSKSEYPWDRYPPFCSGTGYVFSGDVASQVYNVSKSVPYIKLEDVFVGLCLERLNIRLEELHSQPTFFPGGLRFSVCLFRRIVACHFIKPRTLLDYWQALENSRGEDCPPV
-0.56

Give log10 of kcat for soluble β3GalT5-1 (HEK293) (Homo sapiens; Q69A) (protein, soluble luminal domain N29-V310, no TM; expressed in HEK293 cells, complex-type N-glycans) NPFKEQSFVYKKDGNFLKLPDTDCRQTPPFLVLLVTSSHKALAERMAIRQTWGKERMVKGKQLKTFFLLGTTSSAAETKEVDQESQRHGDIIQKDFLDVYYNLTLKTMMGIEWVHRFCPQAAFVMKTDSDMFINVDYLTELLLKKNRTTRFFTGFLKLNEFPIRQPFSKWFVSKSEYPWDRYPPFCSGTGYVFSGDVASQVYNVSKSVPYIKLEDVFVGLCLERLNIRLEELHSQPTFFPGGLRFSVCLFRRIVACHFIKPRTLLDYWQALENSRGEDCPPV
-1.30

Indicate its recorded log10 of kcat; the protein in question is soluble β3GalT5-1 (HEK293) (Homo sapiens; Q69M) (protein, soluble luminal domain N29-V310, no TM; expressed in HEK293 cells, complex-type N-glycans) NPFKEQSFVYKKDGNFLKLPDTDCRQTPPFLVLLVTSSHKMLAERMAIRQTWGKERMVKGKQLKTFFLLGTTSSAAETKEVDQESQRHGDIIQKDFLDVYYNLTLKTMMGIEWVHRFCPQAAFVMKTDSDMFINVDYLTELLLKKNRTTRFFTGFLKLNEFPIRQPFSKWFVSKSEYPWDRYPPFCSGTGYVFSGDVASQVYNVSKSVPYIKLEDVFVGLCLERLNIRLEELHSQPTFFPGGLRFSVCLFRRIVACHFIKPRTLLDYWQALENSRGEDCPPV
-1.23

Hey, just so you know, these numbers are from paper PMC11969553.
